Parameter cell count: see the listing below.
Test name: inhibitors of TNFa-induced NFkB p65 translocation, primary screen, imaging, HUVEC, MLSMR starter and 10KST1 sets (AID 438);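 also: compound added about 3h40 before a 20 min TNFalpha stimulation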
Test parameters: HUVEC TNFa-induced p65 nuclear translocation; measured here: nuclei count (cytotoxicity indicator), at 2.08 µM
Simply state the number, no unit and no words.

Please review the entries below; each comes with its answer.
{"Compound": "Cn1c(=N)c(S(=O)(=O)c2ccc(Cl)cc2)cc2c(=O)n3ccccc3nc21", "cell count": 294}
{"Compound": "O=c1c2ccccc2nnn1CSc1nnc2sc3ccccc3n12", "cell count": 558}
{"Compound": "CCOC(=O)C1=C(C)Nc2nnnn2C1c1c[nH]c2ccccc12 (stereo unspecified)", "cell count": 498}
{"Compound": "CCOC(=O)c1sc(NC(=O)C2CC=CCC2C(=O)O)nc1C (stereo unspecified)", "cell count": 406}
{"Compound": "Nc1nc2n(n1)C(c1cccs1)CC(c1ccc(Br)cc1)N2 (stereo unspecified)", "cell count": 409}

Reported cell count for O=C(OCN1C(=O)c2ccccc2C1=O)C1CCCCC1 was 391

Reported cell count for CCCCOC(=O)CCc1nc2ccccc2[nH]1 was 716

* * *

Target or system: Voltage-gated potassium channel subunit beta-2 (Rattus norvegicus)
Test name: KvBeta positive modulators, primary screen, biochemical, NADPH fluorescence (AID 623);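 also: fluorescence intensity change per second fitted from 20 to 320 s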
Test parameters: Recombinant KvBeta, NADPH fluorescence decrease slope, 10 min; at 10 µM; stronger effect = lower value
Property name: NADPH fluorescence slope
Simply state the number, no unit and no words.

Measured NADPH fluorescence slope for this entry COc1ccc(N2C(=O)CCC(C(=O)N3CCCCC3)C2c2ccc(OC)c(OC)c2)cc1 (stereo unspecified) on Voltage-gated potassium channel subunit beta-2 (Rattus norvegicus): 5.3e-05

Measured NADPH fluorescence slope for this entry CC(C)Sc1nnc2n(CCc3ccccc3)c(=O)c3c4c(sc3n12)COC(C)(C)C4 on Voltage-gated potassium channel subunit beta-2 (Rattus norvegicus): -2.4e-05

* * *

Target or system: Voltage-gated potassium channel subunit beta-2 (Rattus norvegicus) (UniProt P62483)
Sequence (P62483 whole entry, looked up): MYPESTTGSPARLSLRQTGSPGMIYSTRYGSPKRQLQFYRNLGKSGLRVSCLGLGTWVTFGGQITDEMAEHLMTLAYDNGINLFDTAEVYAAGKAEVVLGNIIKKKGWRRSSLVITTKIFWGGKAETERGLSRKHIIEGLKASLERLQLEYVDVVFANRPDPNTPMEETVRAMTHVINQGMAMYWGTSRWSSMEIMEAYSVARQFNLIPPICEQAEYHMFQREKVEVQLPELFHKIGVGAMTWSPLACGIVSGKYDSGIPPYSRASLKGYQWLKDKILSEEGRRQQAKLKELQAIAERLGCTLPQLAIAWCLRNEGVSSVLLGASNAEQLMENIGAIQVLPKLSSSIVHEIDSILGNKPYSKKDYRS
Test name: KvBeta positive modulators, primary screen, biochemical, NADPH fluorescence (AID 623);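 also: fluorescence intensity change per second fitted from 20 to 320 s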
Test parameters: Recombinant KvBeta, NADPH fluorescence decrease slope, 10 min; at 10 µM; stronger effect = lower value
Property name: NADPH fluorescence slope
Simply state the number, no unit and no words.

Please review the entries below; each comes with its answer.
{"Compound": "CCCCSc1nc(N)c(C#N)c(-c2cccs2)c1C#N", "Target or system": "Voltage-gated potassium channel subunit beta-2 (Rattus norvegicus) (UniProt P62483)", "NADPH fluorescence slope": "-1.7e-05"}
{"Compound": "CC(C)CCn1c(NCCc2ccccc2)nc2c1c(=O)n(C)c(=O)n2C", "Target or system": "Voltage-gated potassium channel subunit beta-2 (Rattus norvegicus) (UniProt P62483)", "NADPH fluorescence slope": "-7.3e-05"}
{"Compound": "Cc1ccc(NC(=O)CSc2nnc(-c3ccccn3)n2C)cc1", "Target or system": "Voltage-gated potassium channel subunit beta-2 (Rattus norvegicus) (UniProt P62483)", "NADPH fluorescence slope": "-2.7e-05"}
{"Compound": "COc1cccc(Cn2c(NCc3ccco3)nc3c2c(=O)n(C)c(=O)n3C)c1", "Target or system": "Voltage-gated potassium channel subunit beta-2 (Rattus norvegicus) (UniProt P62483)", "NADPH fluorescence slope": -0.000112}
{"Compound": "COn1c(SC2CCCCC2)nc2ccccc2c1=O", "Target or system": "Voltage-gated potassium channel subunit beta-2 (Rattus norvegicus) (UniProt P62483)", "NADPH fluorescence slope": "-7.1e-05"}

Reported NADPH fluorescence slope for COCCN(C(=O)CCC(=O)Nc1ccccn1)C(C(=O)NC1CCCC1)c1ccc(OC)cc1 (stereo unspecified) was -9e-05
